# System: SK-OV-3
# measurement notes: Antiproliferative SRB assay, parental SK-OV-3
# Format: cell-based, human
# experimental context: Homo sapiens, SK-OV-3, read-out: SK-OV-3 IC50 ± SD (nM)
measured property: IC50 (nM)
# value in nM; strip the unit string

input: Returns the measured IC50 for the input molecule. Input: COc1ccc(N(C)c2nc(C)nc3ccsc23)cc1
output: 253

====

# Tested on: PC43-10 CHO cells (human RFC)
# measurement notes: Growth inhibition of CHO subline PC43-10 expressing human RFC
# Format: cell-based, Chinese hamster
# experimental context: Homo sapiens, PC43-10, read-out: PC43-10 (nM) RFC IC50
measured property: IC50

input: Param item = COc1ccc(N(C)c2nc(C)nc3ccsc23)cc1 ; retrieve measured IC50.
output: > 1000 nM
